Protocol description: MultiTox-Fluor Cytotoxicity Assay - LYMP1-002 - Live Cells (AID 955);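 further: cells exposed to compound for 16 hours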
Run conditions: LYMP1-002 lymphoblastoid live-cell protease fluorescence viability; series mostly up to 46.1 µM
Inconclusive results are not listed. Activity calls are given as the source filed them. The call rests on the fitted dose curve; in most records, active means well fitted cell-killing curve with a large enough effect; inconclusive means small, poorly fitted or top-dose-only effect, or effect the other way; inactive means flat fitted curve, though single readings scatter.
Labels: 1.0 for active, 0.0 for inactive

[[record]]
compound = "O=C(O)C1C(C(=O)O)C2(Cl)C(Cl)=C(Cl)C1(Cl)C2(Cl)Cl (stereo not drawn)"
assigned_category = 0.0

[[record]]
compound = "O=C1C2(Cl)C3(Cl)C4(Cl)C(Cl)(Cl)C5(Cl)C3(Cl)C1(Cl)C5(Cl)C24Cl (stereo not drawn)"
assigned_category = 1.0

[[record]]
compound = "Nc1ccccc1C(=O)OCCc1ccccc1"
assigned_category = 0.0

[[record]]
compound = "COP(=O)(OC)O/C(=C\\Cl)c1cc(Cl)c(Cl)cc1Cl"
assigned_category = 0.0

[[record]]
compound = "O=Nc1ccc(Nc2ccccc2)cc1"
assigned_category = 1.0

[[record]]
compound = "N#CC(Cl)Cl"
assigned_category = 0.0

[[record]]
compound = "O=C(CCl)c1ccccc1"
assigned_category = 1.0

[[record]]
compound = "Oc1c(Br)c(Br)c(Br)c(Br)c1Br"
assigned_category = 0.0

[[record]]
compound = "C[C@@H]1CC[C@@]2(OC1)O[C@H]1[C@@H](O)[C@H]3[C@@H]4CC[C@H]5C[C@@H](O[C@@H]6O[C@H](CO)[C@H](O[C@@H]7O[C@H](CO)[C@@H](O)[C@H](O[C@@H]8OC[C@@H](O)[C@H](O)[C@H]8O)[C@H]7O[C@@H]7O[C@H](CO)[C@@H](O)[C@H](O[C@@H]8O[C@H](CO)[C@@H](O)[C@H](O)[C@H]8O)[C@H]7O)[C@H](O)[C@H]6O)[C@H](O)C[C@]5(C)[C@H]4CC[C@]3(C)[C@H]1[C@@H]2C"
assigned_category = 1.0

[[record]]
compound = "CC(=O)[O-].CC(=O)[O-].O.O.[Cd+2]"
assigned_category = 0.0

[[record]]
compound = "Clc1ccc(C(c2ccc(Cl)cc2)C(Cl)Cl)cc1"
assigned_category = 0.0

[[record]]
compound = "c1ccc2cc3c(cc2c1)-c1cccc2cccc-3c12"
assigned_category = 0.0

[[record]]
compound = "N#CSCSC#N"
assigned_category = 1.0


---

Measured activity, percent of control of individual entries
Protocol description: qHTS profiling for inhibitors of Plasmodium falciparum (DD2) proliferation (AID 743323)
Run conditions: lower = more inhibition; at 28.7 µM (top of the series) unless noted
Recorded endpoint: activity, percent of control (%)

[[record]]
compound = "C[C@@H]1[C@@H](CC(C[C@H]2O[C@@H]3O[C@]4(C)CC[C@@H]5[C@H](C)CC[C@@H]([C@H]2C)[C@@]35OO4)C(=O)NCc2ccc(F)cc2)O[C@@H]2O[C@]3(C)CC[C@H]4[C@H](C)CC[C@@H]1[C@@]24OO3 (stereo partly specified)"
unit_text = "%"
value_observed = 0.0214

[[record]]
compound = "CCCCN(CCCC)CCC(OC(=O)O[C@@H]1CCC[C@]2(C1)OOC1(O2)C2CC3CC(C2)CC1C3)c1cc2c(Cl)cc(Cl)cc2c2cc(C(F)(F)F)ccc12 (stereo partly specified)"
unit_text = "%"
value_observed = 0.0994

[[record]]
compound = "O=C1C(=O)c2ccccc2C(O)=C1C1CCC2(CC1)OOC1(O2)C2CC3CC(C2)CC1C3 (stereo unspecified)"
unit_text = "%"
value_observed = -0.0523

[[record]]
compound = "C[C@H]1[C@@H](CCC(=O)Nc2ccc(F)cc2)O[C@@H]2O[C@]3(C)CC[C@@H]4[C@H](C)CC[C@@H]1[C@@]24OO3"
unit_text = "%"
value_observed = 0.199

[[record]]
compound = "CCCCN(CCCC)CCC(OC(=O)O[C@H]1CCC[C@]2(C1)OOC1(O2)C2CC3CC(C2)CC1C3)c1cc2c(Cl)cc(Cl)cc2c2cc(C(F)(F)F)ccc12 (stereo partly specified)"
unit_text = "%"
value_observed = 0.194


---

Test system: CP256
Protocol description: qHTS profiling for inhibitors of Plasmodium falciparum proliferation (AID 504749); further: nearly all actives have a fitted effect of over 60% in size
Run conditions: P. falciparum in erythrocytes, SYBR Green DNA, 72 h; series mostly up to 28.7 µM
Inconclusive results are not listed. The source made the active and inactive calls. The call rests on the fitted dose curve; in most records, active means well fitted inhibition curve with a large enough effect; inconclusive means small, poorly fitted or top-dose-only effect; inactive means flat fitted curve, though single readings scatter.
Labels: active, inactive

[[record]]
compound = "C#CCN1CC(=O)N(COC(=O)[C@@H]2[C@@H](C=C(C)C)C2(C)C)C1=O"
target = "CP256"
assigned_category = "inactive"

[[record]]
compound = "C=C1Nc2ccccc2C(=O)N1c1ccccc1C"
target = "CP256"
assigned_category = "inactive"

[[record]]
compound = "CN(C)C1C(=O)C(C(N)=O)C(=O)C2(O)C(=O)C3C(=O)c4c(O)cccc4C(C)(O)C3C(O)C12 (stereo not drawn)"
target = "CP256"
assigned_category = "inactive"

[[record]]
compound = "CC(=O)O[C@H]1C[C@H](O[C@H]2[C@@H](O)CC(O[C@H]3[C@@H](O)C[C@H](O[C@H]4CC[C@@]5(C)[C@H](CC[C@@H]6[C@@H]5CC[C@]5(C)[C@@H](C7=CC(=O)OC7)CC[C@]65O)C4)O[C@@H]3C)O[C@@H]2C)O[C@H](C)[C@H]1O[C@@H]1O[C@H](CO)[C@@H](O)[C@H](O)[C@H]1O (stereo partly drawn)"
target = "CP256"
assigned_category = "inactive"

[[record]]
compound = "Nc1nc(O)c(-c2ccccc2)o1"
target = "CP256"
assigned_category = "inactive"

[[record]]
compound = "C=C1CC2C(CC[C@]3(C)C(=O)CCC23)[C@]2(C)C=CC(=O)C=C12 (stereo partly drawn)"
target = "CP256"
assigned_category = "inactive"

[[record]]
compound = "C[C@@H]1CC[C@H]2[C@@H](C)C(=O)O[C@@H]3OC4(C)CC[C@@H]1C32OO4 (stereo partly drawn)"
target = "CP256"
assigned_category = "active"

[[record]]
compound = "CC1(C)[C@@H](C=C(Cl)Cl)[C@@H]1C(=O)OCc1c(F)c(F)cc(F)c1F"
target = "CP256"
assigned_category = "inactive"

[[record]]
compound = "NC(Cc1ccc(Oc2cc(I)c(O)c(I)c2)c(I)c1)C(=O)O (stereo not drawn)"
target = "CP256"
assigned_category = "inactive"

[[record]]
compound = "CC1OC(O[C@H]2C[C@@H](O)[C@]3(CO)[C@@H]4C(CC[C@]3(O)C2)[C@@]2(O)CC[C@H](C3=CC(=O)OC3)[C@@]2(C)C[C@H]4O)C(O)C(O)C1O (stereo partly drawn)"
target = "CP256"
assigned_category = "inactive"

[[record]]
compound = "CN1C2CCC1C(C(=O)O)C(OC(=O)c1ccccc1)C2 (stereo not drawn)"
target = "CP256"
assigned_category = "inactive"

[[record]]
compound = "O=[N+]([O-])OC1CO[C@H]2C(O[N+](=O)[O-])COC12 (stereo partly drawn)"
target = "CP256"
assigned_category = "inactive"

[[record]]
compound = "OCC(O)[C@H]1O[C@@H]2O[C@H](C(Cl)(Cl)Cl)O[C@@H]2[C@H]1O (stereo partly drawn)"
target = "CP256"
assigned_category = "inactive"

[[record]]
compound = "CC(CO)NC(=O)C1C=C2c3cccc4[nH]cc(c34)CC2N(C)C1 (stereo not drawn)"
target = "CP256"
assigned_category = "inactive"

[[record]]
compound = "O=C1CC2OCC=C3CN4CCC56c7ccccc7N1C5[C@H]2[C@H]3C[C@H]46 (stereo partly drawn) (tested in a mixture with another compound)"
target = "CP256"
assigned_category = "inactive"

[[record]]
compound = "CCCCCC(O)C1C(=O)OC(C)C(O)\\C=C/C=C\\C=C/C=C\\C=C(\\C)C(O)C(O)C(O)CC(O)CC(O)CC(O)CC(O)CC1O (stereo not drawn)"
target = "CP256"
assigned_category = "inactive"

[[record]]
compound = "C#C[C@]1(O)CC[C@H]2[C@@H]3CCC4=CC(=O)CCC4(C)[C@H]3CCC21C (stereo partly drawn)"
target = "CP256"
assigned_category = "inactive"

[[record]]
compound = "Cc1cc(C)cc(C(=O)OC2CC3CCC(C2)N3C)c1 (stereo not drawn)"
target = "CP256"
assigned_category = "inactive"

[[record]]
compound = "CN(C)[C@H]1C(=O)C(C(N)=O)=C(O)[C@]2(O)C(=O)C3=C(O)c4c(O)cccc4[C@@](C)(O)[C@H]3C[C@@H]12"
target = "CP256"
assigned_category = "inactive"

[[record]]
compound = "COC(C(=O)C(O)C(C)O)C1Cc2cc3cc(OC4CC(OC5CC(O)C(OC)C(C)O5)C(OC(C)=O)C(C)O4)c(C)c(O)c3c(O)c2C(=O)C1OC1CC(OC2CC(OC3CC(C)(O)C(OC(C)=O)C(C)O3)C(O)C(C)O2)C(O)C(C)O1 (stereo not drawn)"
target = "CP256"
assigned_category = "active"

[[record]]
compound = "CC(=O)Oc1ccc2c3c1OC1[C@@H](OC(C)=O)C=C[C@H]4[C@H](C2)N(C)CC[C@]314 (stereo partly drawn)"
target = "CP256"
assigned_category = "inactive"

[[record]]
compound = "CN(C)[C@@H](Cc1ccccc1)c1ccccc1"
target = "CP256"
assigned_category = "inactive"

[[record]]
compound = "CC12CCC3C4CCC(=O)C(O)=C4CCC3C1CCC2OC(=O)CCC1CCCC1 (stereo not drawn)"
target = "CP256"
assigned_category = "inactive"

[[record]]
compound = "CC(C)CCC(=O)OC1CCC2C3CCC4=CC(=O)CC[C@]4(C)C3CC[C@]12C (stereo partly drawn)"
target = "CP256"
assigned_category = "active"

[[record]]
compound = "C[C@H](N)Cc1ccccc1"
target = "CP256"
assigned_category = "inactive"

[[record]]
compound = "CC(=O)[C@H]1CC[C@H]2C3CC[C@H]4C[C@H](O)CC[C@]4(C)C3CC[C@]12C (stereo partly drawn)"
target = "CP256"
assigned_category = "inactive"

[[record]]
compound = "CC1(C)S[C@@H]2[C@H](N)C(=O)N2C1C(=O)O (stereo partly drawn)"
target = "CP256"
assigned_category = "inactive"

[[record]]
compound = "COC(=O)C1C(OC(=O)c2ccccc2)CC2CCC1N2C (stereo not drawn)"
target = "CP256"
assigned_category = "inactive"

